Reported IC50 is given for each of the following compounds.
- TGT: GTPase KRas (Homo sapiens, UniProt P01116, G12C)
- ASSAY_INFO: Inhibition of GDP-loaded His-tagged KRAS G12C mutant (2 to 182 residues) (unknown origin) assessed as inhibition of SOS1-catalyzed nucleotide exchange preincubated for 1 hr followed by SOS1 addition measured after 1 hr by TR-FRET assay

{"COMPOUND": "C=CC(=O)N1CCN(c2c(C#N)c(=O)n(-c3c(C)ccnc3C(C)C)c3nc(-c4c(N)c(Cl)cc(Cl)c4F)c(Cl)cc23)C[C@@H]1CC#N", "TGT": "GTPase KRas (Homo sapiens, UniProt P01116, G12C)", "UNIT_STRING": "nM", "IC50": 6.66}
{"COMPOUND": "C=CC(=O)N1CCN(c2c(C#N)c(=O)n(-c3c(C)ccnc3C(C)C)c3nc(-c4c(N)c(Cl)cc(Cl)c4F)c(Cl)cc23)CC1CC#N (stereo unspecified)", "TGT": "GTPase KRas (Homo sapiens, UniProt P01116, G12C)", "UNIT_STRING": "nM", "IC50": 5.19}
{"COMPOUND": "C=CC(=O)N1[C@H](C)CN(c2c(C#N)c(=O)n(-c3c(C)ccnc3C(C)C)c3nc(-c4c(N)c(Cl)cc(Cl)c4F)c(Cl)cc23)C[C@@H]1C", "TGT": "GTPase KRas (Homo sapiens, UniProt P01116, G12C)", "UNIT_STRING": "nM", "IC50": 2.83}
{"COMPOUND": "C=CC(=O)N1CCN(c2c(C#N)c(=O)n(-c3c(C)ccnc3C(C)C)c3nc(-c4c(N)c(Cl)cc(Cl)c4F)c(Cl)cc23)C[C@H]1C", "TGT": "GTPase KRas (Homo sapiens, UniProt P01116, G12C)", "UNIT_STRING": "nM", "IC50": 2.54}
{"COMPOUND": "C=CC(=O)N1CCN(c2c(C#N)c(=O)n(-c3c(C(C)C)ncnc3C(C)C)c3nc(-c4c(N)c(Cl)cc(Cl)c4F)c(Cl)cc23)CC1", "TGT": "GTPase KRas (Homo sapiens, UniProt P01116, G12C)", "UNIT_STRING": "nM", "IC50": 4.74}
{"COMPOUND": "C=CC(=O)N1CCN(c2c(C#N)c(=O)n(-c3c(C)ccnc3C(C)C)c3nc(-c4ccccc4F)c(Cl)cc23)CC1", "TGT": "GTPase KRas (Homo sapiens, UniProt P01116, G12C)", "UNIT_STRING": "nM", "IC50": 4.4}
